test system: Erwinia amylovora; assay: Antibacterial activity against Erwinia amylovora after 24 hr by spectrophotometry; assay type: functional
VALUE KIND: MIC (µg/mL)

{"COMPOUND": "COc1cc(OC)c2c(c1)OC(c1ccc(OC)c(OC)c1)C(O)C2 (racemic)", "UNITS TEXT": "µg/mL", "RESULT NUMBER": 12.5}
{"COMPOUND": "COc1cc(OC)c2c(c1)O[C@H](c1ccc(OC)c(OC)c1)[C@@H](O)C2", "UNITS TEXT": "µg/mL", "RESULT NUMBER": 25}
{"COMPOUND": "CC(=O)Oc1cc(OC(C)=O)c2c(c1)O[C@H](c1ccc(OC(C)=O)c(OC(C)=O)c1)[C@@H](OC(C)=O)C2 [CATECHIN PENTAACETATE]", "UNITS TEXT": "µg/mL", "RESULT NUMBER": 6.3}
{"COMPOUND": "CC(=O)Oc1cc(OC(C)=O)c2c(c1)OC(c1ccc(OC(C)=O)c(OC(C)=O)c1)C(OC(C)=O)C2 (racemic) [(+/-)-PENTAACETYLCATECHIN]", "UNITS TEXT": "µg/mL", "RESULT NUMBER": 25}
{"COMPOUND": "CC1(C)OC2Cc3c(O)cc(O)cc3OC2c2cc(O)c(O)cc21 (racemic)", "UNITS TEXT": "µg/mL", "RESULT NUMBER": 12.5}
{"COMPOUND": "Oc1cc(O)c2c(c1)O[C@H](c1ccc(O)c(O)c1)[C@@H](O)C2", "UNITS TEXT": "µg/mL", "RESULT NUMBER": 1.6}
{"COMPOUND": "CC1(C)O[C@H]2Cc3c(O)cc(O)cc3O[C@@H]2c2cc(O)c(O)cc21", "UNITS TEXT": "µg/mL", "RESULT NUMBER": 3.1}
